Reference source for all entries: paper PMC5540273

- System: ERBB3;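 note: KINOMEscan kinase panel screen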
- CONDITION_PARAMETERS: concentration: 1 μM, replicates: in singlicate; n = 1

# COMPOUND, UNIT_NAME, %Inh
measured = [
    ("COc1ccc(CSc2nnc(-c3ccc4nccn4c3)o2)cc1C(F)(F)F", "%", 9),
    ("Cn1cnc2c(N)ncnc21 [SKF-97623]", "%", 0),
    ("COc1ccc(CSc2nnc(-c3ccc4c(c3)CCO4)o2)cc1", "%", 0),
    ("COc1cccc(C2=C(Nc3cc(Cl)c(O)c(Cl)c3)C(=O)NC2=O)c1 [SB-390767]", "%", 3),
    ("COc1cccc(NC(=O)Nc2ccc(C)c(-c3ccc(C(=O)Nc4ccncc4)cc3)c2)c1 [GSK1398474]", "%", 0),
    ("CC(C)c1cc(-c2ccc3c(N)n[nH]c3c2)nc(N)n1 [GSK2250882]", "%", 0),
    ("COc1ccc(Nc2nccc(N3CCC(NC(=O)C(C)c4ccc(Cl)cc4)C3)n2)cc1 (centres unmarked) [GSK1379735]", "%", 9),
    ("CCn1c(-c2c(N)noc2C)nc2cnccc21 [SB-737856]", "%", 0),
    ("CNC(=O)c1ccc(C)c(-n2c(C)cc(OCc3ccc(F)cc3F)c(Br)c2=O)c1", "%", 0),
    ("CNc1cc(-c2ccc3c(N)n[nH]c3c2)nc(N)n1 [GSK2224810]", "%", 0),
    ("CS(=O)(=O)Cc1ccc(Nc2nccc(-c3c(-c4cccc(NC(=O)C5CCCCC5)c4)nn4ncccc34)n2)cc1 [GSK350559]", "%", 22),
    ("CC[C@@H]1CO[C@H](C(=O)Nc2ccccc2)CN1c1cc(-c2ccc3c(N)n[nH]c3c2)nc(NC)n1 [GSK2376236]", "%", 0),
    ("FC(F)(F)c1ccccc1-c1cc(-c2c[nH]nc2-c2ccccn2)ccn1 [GW679396]", "%", 0),
    ("Cc1ccc(NC(=O)Nc2ccc(Cl)c(C(F)(F)F)c2)cc1-c1ccc(C(=O)Nc2ccncc2)cc1 [GSK1398470]", "%", 0),
    ("COC(=O)C(Cc1ccccc1)NC(=O)NC1CCN(c2ccnc(Nc3ccc(F)cc3)n2)C1 (centres unmarked) [GSK1379714]", "%", 28),
    ("Cc1ccc(NC(=O)c2ccc(Cl)cc2)cc1-c1ccc(C(=O)Nc2ccncc2)cc1 [GSK1398467]", "%", 0),
    ("O=C(Nc1n[nH]c2nc(-c3cccs3)c(Br)cc12)C1CC1 [SB-735297]", "%", 0),
    ("Nc1nccc(-c2c(-c3ccc(F)cc3)ncn2C2CCN(Cc3ccccc3)CC2)n1 [SB-219980]", "%", 0),
    ("CC(C)c1ccc(O)cc1Nc1ccnc2ccc(C(F)(F)F)cc12 [GW482059]", "%", 0),
    ("COc1cc2ncnc(Nc3cccc(Br)c3)c2cc1OC.Cl [GI230329]", "%", 41),
    ("NS(=O)(=O)c1cccc(N/C=C2\\C(=O)Nc3ccc(S(=O)(=O)Cc4c(Cl)cccc4Cl)cc32)c1 [GSK398099]", "%", 0),
    ("COc1ccc(Nc2nccc(-c3ccc(NC(=O)c4cc5cc(F)ccc5[nH]4)cc3)n2)cc1 [GSK1229496]", "%", 13),
    ("O=C(Nc1n[nH]c2nc(-c3ccco3)c(Br)cc12)C1CCN(Cc2ccccc2)C1.O=C(O)[C@H](O)[C@@H](O)C(=O)O (centres unmarked) [SB-742034]", "%", 0),
    ("CNc1nc(-c2ccc3c(N)n[nH]c3c2)cc(N2C[C@@H](C(=O)Nc3ccccc3)CC[C@H]2C)n1 [GSK2298859]", "%", 0),
    ("Cc1ccc(NC(=O)Nc2ccc(Cl)cc2)cc1-c1ccc(C(=O)Nc2ccncc2)cc1 [GSK1398472]", "%", 0),
    ("CN1c2ccc(-c3ccc(C(N)=O)cc3)cc2-c2[nH]ncc2S1(=O)=O", "%", 14),
    ("COc1nccc(-c2c(-c3ccc(F)cc3)ncn2CCCN2CCOCC2)n1 [SB-282852]", "%", 46),
    ("COc1ccc(-c2coc3ccc(-c4nnc(C)o4)cc23)cc1", "%", 0),
    ("Cc1ccccc1Cn1ccn2c(=O)cc(N3CCOCC3)nc12 [GSK2269905]", "%", 0),
    ("CC(=O)c1cccc(NC(=O)NC2CCN(c3ccnc(Nc4ccc(F)cc4)n3)C2)c1 (centres unmarked) [GSK1379710]", "%", 8),
    ("Fc1ccc(-c2nn3cccc(F)c3c2-c2ccncc2)cc1 [GW475620]", "%", 0),
    ("O=C(Nc1n[nH]c2nc(-c3cccs3)c(Br)cc12)C1CCCC1 [SB-743341]", "%", 3),
    ("Cc1cccc2c(-c3ccncn3)c(-c3ccc(F)cc3)nn12 [GW515532]", "%", 0),
    ("COC(=O)C(NC(=O)NC1CCN(c2ccnc(Nc3ccc(F)cc3)n2)C1)c1ccccc1 (centres unmarked) [GSK1379712]", "%", 0),
    ("COC(=O)c1cccc(NC(=O)NC2CCN(c3ccnc(Nc4ccc(OC)cc4)n3)C2)c1 (centres unmarked) [GSK1379746]", "%", 24),
]
